# Test Name: Human HepG2 cell viability assay in 384 well format
# Type: toxicity, cell-based
# Parameters: dose 125 nL, time 70.5 hour; concentration not given beside the values
# Run Parameters: HepG2 cells, read-out: Inhibition
Metric Name: cytotoxicity at 70.5 h (%)
I only need the number, in %, no unit after it.

INSERT INTO results (molecule, reading) VALUES
  ('O=C(CC1COCCN1)N1CCCN(C2Cc3ccccc3C2)CC1 (stereo unspecified)', -3.92),
  ('CCCOc1ccc(C(=O)N2CC[C@H]3CC[C@@H](C2)N3)cc1Cl', -14.3),
  ('O=C(Cn1cccn1)N1CCC(c2nnc(-c3ccsc3)o2)CC1', -4.75),
  ('Cc1nn(C)c(C)c1CN(C)C(=O)c1cc(C(F)(F)F)n(C)n1', -5.06),
  ('Nc1nc(CCC(=O)N2CCOC(CC3CCCCC3)C2)cs1 (stereo unspecified)', -2.5);

Reported cytotoxicity at 70.5 h for COc1ccccc1C(C)NC(=O)N1CCN(Cc2ccc(Br)s2)CC1 (stereo unspecified) : what is it? 5.11

Give its cytotoxicity at 70.5 h value. Item: COC(=O)NCC(=O)NCC(C)(C)c1cccc(Br)c1 -0.269

Look at this molecule and give its reported cytotoxicity at 70.5 h. CN(Cc1ccco1)[C@@H]1CN(C(=O)C2CCOCC2)C[C@@H]2CCCO[C@@H]21 0.92

cytotoxicity at 70.5 h for CC(C)c1nc(-c2cc(C(=O)NCCCO)c3ccccn23)cs1 ? -3.65

Reported cytotoxicity at 70.5 h for CC(NCc1cccc(COC2CCCC2)c1)c1cnn(C)c1 (stereo unspecified) : what is it? -3.04

Could you share which cytotoxicity at 70.5 h value was measured for CC(NC(=O)NCC(C)(C)C(N)=O)c1nc(-c2ccccc2)cs1 (stereo unspecified) ? -5.18

* * *

# Test Name: Human HepG2 cell viability assay in 384 well format
# Assay type: toxicity, cell-based
# Parameters: dose 125 nL, time 70.5 hour; concentration not given beside the values
# Run Parameters: HepG2 cells, read-out: Inhibition
Metric Name: cytotoxicity at 70.5 h
Quick note: number first, unit second.

INSERT INTO assay_data (molecule, reading) VALUES
  ('CC(Cn1ccnc1)NCc1ccc2nonc2c1 (centres undefined)', '-2.31%'),
  ('CC(C)N(C(=O)Cn1cc(Cl)cn1)c1ccccc1', '-4.68%'),
  ('CN(Cc1ccco1)[C@@H]1CN(Cc2ccco2)[C@@H]2CCCO[C@H]12', '-9.38%'),
  ('COc1ccnc(N2CCN(C(=O)Cc3ccsc3)CC2)n1', '-8.71%'),
  ('CCCOc1cc(CNC(=O)Nc2cccnc2N2CCCC2)ccn1', '-24.2%'),
  ('O=C(Nc1ccccc1)C1CCN(C(=O)COc2ccccc2F)CC1', '7.69%');

As a next step, examine the molecule that follows.
What does the data say about its cytotoxicity at 70.5 h? Entry: CCC(=O)N1CCCC(C(=O)c2cnn(-c3ccc(F)cc3)c2N)C1 (centres undefined) -0.996%

* * *

# Test Name: Human HepG2 cell viability assay in 384 well format
# Format: toxicity, cell-based
# Parameters: dose 125 nL, time 70.5 hour; concentration not given beside the values
# Run Parameters: HepG2 cells, read-out: Inhibition
Metric Name: cytotoxicity at 70.5 h (%)
Give just the numeric value; % need not be written.

Some solved entries appear below for comparison.
INSERT INTO assay_data (compound, unit_tag, reading) VALUES
  ('COC(=O)c1ccc(Cn2cccc(C(F)(F)F)c2=O)c(OC)c1', '%', 21.6),
  ('CCCS(=O)(=O)N1CCC(NC(=O)c2cc(CC)c(C)s2)CC1', '%', -0.636),
  ('Cc1noc(CCCC(=O)NCC(c2ccco2)N2CCCC2)n1 (stereo unspecified)', '%', -14.9),
  ('COc1ccccc1OC1(C(=O)O)CCN(c2cnccn2)CC1', '%', 47.4),
  ('COCCC1(CNC(=O)Nc2ccnc(C)c2)CCCC1', '%', -20.4);

We next turn to a different compound, shown below.
Recorded cytotoxicity at 70.5 h for O=S(=O)(c1cccs1)N1CCN(Cc2nc(-c3ccco3)cs2)CC1 , please? 1.85

Data origin: ChEMBL document CHEMBL3507680
